Target: BACE1 (Homo sapiens (Human))
Test: Measurement of BACE1 inhibition by fluorescence resonance energy transfer (FRET), MCA substrate
Conditions: read-out: Test Example 1 IC50; FRET, MCA-SEVNLDAEFK(DNP)-NH2 substrate, pH 4.4
Measured pIC50 of individual entries
pIC50 field: float, defined as -log10 of concentration (mol/L).

Solved entries:
NC1=NC2(CO1)c1cc(-c3cccc(F)c3)ccc1OC1(CCC1)C21COC1 (stereo not drawn): 5.64
Cc1ncccc1-c1ccc2c(c1)C1(COC(N)=N1)C1(COC1)C1(CCC1)O2 (stereo not drawn): 4.45
NC1=NC2(CO1)c1cc(-c3cncc(OCC(F)(F)C(F)F)c3)ccc1OCC21CC1 (stereo not drawn): 5.21
CCC/C=C/c1ccc2c(c1)C1(COC(N)=N1)C1(COC1)C(C)(C)O2 (stereo not drawn): 6.06
CC#Cc1cncc(-c2ccc3c(c2)C2(COC(N)=N2)C2(COC2)C(CC2CC2)O3)c1 (stereo not drawn): 6.90

Suppose we examine the compound CC#Cc1cncc(-c2ccc3c(c2)C2(COC(N)=N2)C2(CCC2)CO3)c1 (stereo not drawn) ; what pIC50 value has been reported?
5.95

Suppose we examine the compound CC#Cc1cncc(-c2ccc3c(c2)C2(COC(N)=N2)C2(CC2)CO3)c1 (stereo not drawn) [RP 111] ; what pIC50 value has been reported?
6.54

Suppose we examine the compound CCCC1Oc2ccc(Br)cc2C2(C=C(N)OC2)C12COC2 (single isomer, unassigned) [RP 11a] ; what pIC50 value has been reported?
4.81

Suppose we examine the compound CC#Cc1cncc(-c2ccc3c(c2)C2(COC(N)=N2)C2(COC2)C(CCC(F)(F)F)O3)c1 (stereo not drawn) ; what pIC50 value has been reported?
6.90

Suppose we examine the compound NC1=NC2(CO1)c1cc(-c3cncc(C(F)F)c3)ccc1OC1(CCC1)C21COC1 (stereo not drawn) ; what pIC50 value has been reported?
5.74

Suppose we examine the compound Cc1cc(-c2ccc3c(c2)C2(COC(N)=N2)C2(COC2)C(C)(C)O3)cnc1F (stereo not drawn) ; what pIC50 value has been reported?
5.55

Suppose we examine the compound Cc1cc(F)cc(-c2ccc3c(c2)C2(COC(N)=N2)C2(COC2)C(C)(C)O3)c1 (stereo not drawn) ; what pIC50 value has been reported?
6.21

Suppose we examine the compound CC(C)Cc1ccc2c(c1)C1(COC(N)=N1)C1(COC1)C1(CCC1)O2 (stereo not drawn) ; what pIC50 value has been reported?
5.05

Suppose we examine the compound NC1=NC2(CO1)c1cc(Br)ccc1OCC21CC1 (stereo not drawn) ; what pIC50 value has been reported?
4.52

Suppose we examine the compound NC1=NC2(c3cc(Br)ccc3OCC23CC3)C(F)(F)CO1 (stereo not drawn) ; what pIC50 value has been reported?
4.25

Suppose we examine the compound CCC1Oc2ccc(Br)cc2C2(COC(N)=N2)C12COC2 (single isomer, unassigned) [RP 9a] ; what pIC50 value has been reported?
4.76

Suppose we examine the compound NC1=NC2(CO1)c1cc(-c3cc(Cl)cnc3F)ccc1OC1(CCC1)C21COC1 (stereo not drawn) ; what pIC50 value has been reported?
6.08

Suppose we examine the compound NC1=NC2(CO1)c1cc(-c3cncnc3)ccc1OCC21CC(F)(F)C1 (stereo not drawn) ; what pIC50 value has been reported?
5.11

Suppose we examine the compound NC1=NC2(c3cc(-c4cncnc4)ccc3OCC23CC3)C(F)(F)CS1 (stereo not drawn) ; what pIC50 value has been reported?
4.83

Suppose we examine the compound NC1=NC2(CO1)c1cc(Nc3ncccc3Cl)ccc1OCC21COC1 (stereo not drawn) ; what pIC50 value has been reported?
5.71

Suppose we examine the compound NC1=NC2(CO1)c1cc(NC(=O)c3ccc(F)cn3)ccc1OCC21CC1 (stereo not drawn) ; what pIC50 value has been reported?
5.97

Suppose we examine the compound CC1(C)Oc2ccc(-c3cncc(Cl)c3)cc2C2(COC(N)=N2)C12COC2 (stereo not drawn) ; what pIC50 value has been reported?
6.40

Suppose we examine the compound CC(C)CC1Oc2ccc(Br)cc2C2(COC(N)=N2)C12COC2 (single isomer, unassigned) [RP 13a] ; what pIC50 value has been reported?
4.95

Suppose we examine the compound CC1(C)Oc2ccc(-c3cc(F)cc(F)c3)cc2C2(COC(N)=N2)C12COC2 (stereo not drawn) ; what pIC50 value has been reported?
6.21

Suppose we examine the compound `CC1(C)Oc2ccc(NC(=O)c3ccc(Cl)cn3)cc2[C@@]2(COC(N)=N2)C12CC2` ; what pIC50 value has been reported?
7.09

Suppose we examine the compound N#Cc1ccc(C(=O)Nc2ccc3c(c2)C2(COC(N)=N2)C2(CC2)CO3)nc1 (stereo not drawn) ; what pIC50 value has been reported?
6.42

Suppose we examine the compound CCC1Oc2ccc(-c3cncnc3)cc2C2(COC(N)=N2)C12COC2 (stereo not drawn) [RP 87] ; what pIC50 value has been reported?
5.81

Suppose we examine the compound NC1=NC2(CO1)c1cc(Br)ccc1OC1(CCCC1)C21COC1 (stereo not drawn) ; what pIC50 value has been reported?
5.14

====

Biological target: BACE1 (Homo sapiens (Human), UniProt P56817)
Sequence (P56817 75-416): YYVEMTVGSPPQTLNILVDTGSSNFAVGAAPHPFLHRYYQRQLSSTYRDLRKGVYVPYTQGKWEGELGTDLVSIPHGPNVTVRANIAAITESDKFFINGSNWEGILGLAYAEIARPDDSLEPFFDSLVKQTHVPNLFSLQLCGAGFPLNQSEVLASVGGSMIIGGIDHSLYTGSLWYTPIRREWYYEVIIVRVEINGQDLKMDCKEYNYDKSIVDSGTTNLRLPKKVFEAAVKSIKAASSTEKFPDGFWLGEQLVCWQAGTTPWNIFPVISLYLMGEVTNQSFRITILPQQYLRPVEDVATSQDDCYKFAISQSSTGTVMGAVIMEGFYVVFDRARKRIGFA
Test: Measurement of BACE1 inhibition by fluorescence resonance energy transfer (FRET), MCA substrate
Settings: read-out: Test Example 1 IC50; FRET, MCA-SEVNLDAEFK(DNP)-NH2 substrate, pH 4.4
measurement.label: IC50 (µM)
Write the answer as a number in µM, unit excluded.

Solved entries:
NC1=NC2(c3cc(-c4cncnc4)ccc3OCC23CC3)c2cccc(F)c21 (centres unmarked): 0.736
C#Cc1cncc(-c2ccc3c(c2)C2(COC(N)=N2)C2(COC2)CO3)c1 (centres unmarked): 0.519
N#Cc1cncc(-c2ccc3c(c2)C2(COC(N)=N2)C2(COC2)C2(CCC2)O3)c1 (centres unmarked): 1.89
NC1=NC2(COC1)c1cc(-c3cncnc3)ccc1OCC21CC1 (centres unmarked): 1.21
CC#Cc1cncc(-c2ccc3c(c2)C2(COC(N)=N2)C2(COC2)C(CCC)O3)c1 (centres unmarked): 0.124
NC1=NC2(CO1)c1cc(-c3ccccc3)ccc1OC1(CCC1)C21COC1 (centres unmarked): 3.39
N#Cc1cc(-c2ccc3c(c2)C2(COC(N)=N2)C2(COC2)C2(CCC2)O3)ccc1F (centres unmarked): 3.63
NC1=NC2(CO1)c1cc(-c3ccc(F)nc3F)ccc1OC1(CCC1)C21COC1 (centres unmarked): 3.37
CC1(C)Oc2ccc(-c3cc(F)ncc3Cl)cc2C2(COC(N)=N2)C12COC2 (centres unmarked): 0.93
CC1(C)Oc2ccc(-c3ccnc(Cl)c3Cl)cc2C2(COC(N)=N2)C12COC2 (centres unmarked): 2.12

Suppose we examine the compound NC1=NC2(CO1)c1cc(-c3cncnc3)c(F)cc1OCC21CC1 (centres unmarked) ; what IC50 value has been reported?
1.61

Suppose we examine the compound Cc1cnc(Cl)c(-c2ccc3c(c2)C2(COC(N)=N2)C2(COC2)C(C)(C)O3)c1 (centres unmarked) ; what IC50 value has been reported?
1.36

Suppose we examine the compound CC(C)CC1Oc2ccc(-c3cncnc3)cc2C2(COC(N)=N2)C12COC2 (centres unmarked) [RP 90] ; what IC50 value has been reported?
0.901

Suppose we examine the compound NC1=NC2(CO1)c1cc(-c3cccnc3)ccc1OC1(CCC1)C21COC1 (centres unmarked) ; what IC50 value has been reported?
2

Suppose we examine the compound COCc1cnn(-c2ccc3c(c2)C2(COC(N)=N2)C2(COC2)C2(CCC2)O3)c1 (centres unmarked) ; what IC50 value has been reported?
12.6

Suppose we examine the compound COc1cccc(-c2ccc3c(c2)C2(COC(N)=N2)C2(COC2)C2(CCC2)O3)c1F (centres unmarked) ; what IC50 value has been reported?
0.773

Suppose we examine the compound CC1(C)Oc2ccc(-c3c(F)ccc(F)c3F)cc2C2(COC(N)=N2)C12COC2 (centres unmarked) ; what IC50 value has been reported?
2.05

====

Biological target: hERG potassium channel (Homo sapiens (Human), UniProt Q12809)
Sequence (Q12809 whole entry): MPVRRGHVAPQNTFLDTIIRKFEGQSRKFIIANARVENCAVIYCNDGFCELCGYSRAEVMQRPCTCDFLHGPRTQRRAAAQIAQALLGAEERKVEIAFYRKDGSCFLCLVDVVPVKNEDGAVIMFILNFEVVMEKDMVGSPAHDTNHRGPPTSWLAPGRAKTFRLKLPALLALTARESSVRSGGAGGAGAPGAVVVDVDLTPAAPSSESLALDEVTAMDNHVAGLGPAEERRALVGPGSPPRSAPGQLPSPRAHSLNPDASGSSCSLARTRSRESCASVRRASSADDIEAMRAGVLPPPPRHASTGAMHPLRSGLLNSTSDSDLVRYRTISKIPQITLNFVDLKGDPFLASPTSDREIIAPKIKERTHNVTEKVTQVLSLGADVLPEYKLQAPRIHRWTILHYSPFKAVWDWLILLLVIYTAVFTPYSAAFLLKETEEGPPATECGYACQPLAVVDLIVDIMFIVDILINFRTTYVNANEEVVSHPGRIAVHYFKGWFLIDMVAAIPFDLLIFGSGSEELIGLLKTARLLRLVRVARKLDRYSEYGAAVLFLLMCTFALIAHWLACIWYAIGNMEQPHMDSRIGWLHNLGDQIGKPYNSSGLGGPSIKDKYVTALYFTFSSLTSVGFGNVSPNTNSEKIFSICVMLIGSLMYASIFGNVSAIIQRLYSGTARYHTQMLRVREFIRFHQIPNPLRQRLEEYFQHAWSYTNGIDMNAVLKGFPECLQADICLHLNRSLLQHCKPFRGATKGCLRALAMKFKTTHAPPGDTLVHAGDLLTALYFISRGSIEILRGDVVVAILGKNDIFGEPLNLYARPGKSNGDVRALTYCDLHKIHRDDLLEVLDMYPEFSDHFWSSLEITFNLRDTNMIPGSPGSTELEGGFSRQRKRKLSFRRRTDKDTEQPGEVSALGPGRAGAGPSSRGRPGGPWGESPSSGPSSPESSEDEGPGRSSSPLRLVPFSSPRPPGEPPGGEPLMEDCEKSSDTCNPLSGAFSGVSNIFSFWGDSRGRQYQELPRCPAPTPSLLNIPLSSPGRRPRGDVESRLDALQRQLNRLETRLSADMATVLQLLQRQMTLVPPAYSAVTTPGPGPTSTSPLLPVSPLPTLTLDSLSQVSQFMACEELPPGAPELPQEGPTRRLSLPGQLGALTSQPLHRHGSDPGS
Experiment: hERG inhibition, automated planar patch-clamp in hERG-expressing CHO cells
Measured IC50 of individual entries
Write the answer as a number in µM, unit excluded.

Cc1cnc(C(=O)Nc2ccc3c(c2)C2(COC(N)=N2)CC(C)(C)C3)cn1 (racemic) [WO2011/123674 Example 98, reference compound]: 9.46

Suppose we examine the compound CC1(C)Cc2ccc(NC(=O)c3ccc(Cl)cn3)cc2C2(COC(N)=N2)C1 (racemic) [WO2011/123674 Example 89, reference compound] ; what IC50 value has been reported?
0.44

====

Measured pIC50 of individual entries
Molecular target: hERG potassium channel (Homo sapiens (Human))
Assay: hERG inhibition, automated planar patch-clamp in hERG-expressing CHO cells
Settings: read-out: Test Example 5 hERG IC50; whole-cell patch clamp, room temperature
pIC50: −log10 of the molar value.

Solved entries:
NC1=NC2(CO1)c1cc(-c3cncnc3)ccc1OC1(CCC1)C21COC1 (stereo not drawn) [RP 5]: < 5.00
CC1(C)Oc2ccc(NC(=O)c3ccc(F)cn3)cc2[C@@]2(COC(N)=N2)C12CC2 [Example 222]: < 5.00
CC1(C)Oc2ccc(Br)cc2C2(CSC(N)=N2)C12COC2 (stereo not drawn) [RP 42]: < 5.00
COc1cccnc1Nc1ccc2c(c1)C1(COC(N)=N1)C1(COC1)C1(CCC1)O2 (stereo not drawn) [RP 45]: < 5.00
CC#Cc1cncc(-c2ccc3c(c2)C2(COC(N)=N2)C2(COC2)C(CC)O3)c1 (stereo not drawn) [RP 86]: 5.10

Suppose we examine the compound Cc1cn2ccc(-c3ccc4c(c3)C3(COC(N)=N3)C3(COC3)C3(CCC3)O4)cc2n1 (stereo not drawn) [RP 66] ; what pIC50 value has been reported?
< 5.00

Suppose we examine the compound NC1=NC2(CO1)c1cc(-c3cncnc3)ccc1OC(Cc1ccccc1)C21COC1 (stereo not drawn) [RP 202] ; what pIC50 value has been reported?
5.11

Suppose we examine the compound CC(C)CC1Oc2ccc(-c3cncnc3)cc2C2(COC(N)=N2)C12COC2 (stereo not drawn) [RP 90] ; what pIC50 value has been reported?
< 5.00

Suppose we examine the compound NC1=NC2(CO1)c1cc(Nc3ncccc3Cl)ccc1OCC21COC1 (stereo not drawn) [RP 43] ; what pIC50 value has been reported?
< 5.00
